RUN_DESCRIPTION: blockers of measles virus-induced cell death – single point, MLSMR library, absorbance, measles RdRp inhibitor project, primary screen (AID 841)
CONDITIONS: Measles virus-infected cells, CPE protection, at 4 µM, stronger effect = higher value
The campaign covered roughly 140,000 compounds. About 2,100 (1.5%) were called active. The full list was thinned out, with actives kept by preference.
MEASURE_NAME: protection (pct of control) (%)
Answer in %, number only, no unit symbol.

Illustrative cases are given below, each with its answer.
> print(dat)
                                   compound                 measure.name  readout.units  result
1      COC(=O)[C@H]1Cc2cnoc2C[C@]1(C)C(=O)O  protection (pct of control)              %    8.42
2  CCOC(=O)c1c(NC(=S)NC(=O)c2ccco2)sc2c1CCCC2  protection (pct of control)              %      37
3  Cc1cc(C)nc(SC2CCCCC2NS(=O)(=O)c2ccc(Cl)cc2)n1 (centres undefined)  protection (pct of control)              %    24.5
4  CC(C)c1nccn1S(=O)(=O)c1cc([N+](=O)[O-])ccc1Cl  protection (pct of control)              %    14.2
5  COc1cc(C2C(N3C(=O)c4ccccc4C3=O)C(=O)N2c2ccc(C)c(C)c2)cc(OC)c1OC (centres undefined)  protection (pct of control)              %    9.11

response.value for Cc1cc(NS(=O)(=O)c2ccc(NC(=S)NC(=O)c3ccc(F)cc3Cl)cc2)no1 (field: protection (pct of control)) = 9.68

response.value for COc1ccc(NC(=O)COC(=O)c2ccc(NS(=O)(=O)/C=C/c3ccccc3)cc2)cc1 (field: protection (pct of control)) = 6.22

response.value for Cc1ccc(N(C(=O)C(F)(F)F)C(C(=O)NC2CCCCC2)c2ccncc2)cc1C (centres undefined) (field: protection (pct of control)) = 29.7

response.value for CCCc1ccc(-c2csc(NC(=O)Cc3cccs3)n2)cc1 (field: protection (pct of control)) = 25

response.value for O=[N+]([O-])c1ccccc1SNc1ccccn1 (field: protection (pct of control)) = 4.84
